Structures can show the parent of a compound that is named as a salt.
Target or system human PI3Kδ enzyme (Homo sapiens); recorded quantity IC50.
ASSAY READOUT: IC50 (nM)

| COMPOUND | READOUT UNIT | ASSAY RESULT |
| --- | --- | --- |
| NC1(C(=O)N[C@H]2CC[C@H](Oc3cc(-n4c(C(F)F)nc5ccccc54)nc(N4CCOCC4)n3)CC2)CCCC1 | nM | 13 |
| O=C(CNCC1CC1)N[C@H]1CC[C@H](Oc2cc(-n3c(C(F)F)nc4ccccc43)nc(N3CCOCC3)n2)CC1 | nM | 5.2 |
| CN(C)CCN1CC[C@H](Nc2nc(N3CCOCC3)cc(-n3c(C(F)F)nc4ccccc43)n2)C1 [Example 45, dihydrochloride] | nM | 56 |
| COC(=O)N1CCC(C(=O)N2CC[C@H](Nc3cc(-n4c(C(F)F)nc5ccccc54)nc(N4CCOCC4)n3)C2)CC1 | nM | 28 |
| FC(F)c1nc2ccccc2n1-c1cc(N2CCOCC2)nc(NCC2CCN(C3CCCCC3)CC2)n1 | nM | 4.9 |
| CC(=O)N1CCC(CC(=O)N2CC(Nc3cc(-n4c(C(F)F)nc5ccccc54)nc(N4CCOCC4)n3)C2)CC1 | nM | 19 |
| O=C(C1CCOC1)N1CC[C@H](Nc2cc(-n3c(C(F)F)nc4ccccc43)nc(N3CCOCC3)n2)C1 (stereo partly shown) | nM | 10 |
